All figures here come from paper PMC3741113.

Listed substances paired with reported MIC
system: Pseudomonas corrugata; conditions: LB-medium, about 10^5 CFU/ml, 27°C, 1–2d, OD590 nm; at least two independent replicates
Ends that are not written are not given here.
Field format: number, assumed µg/mL, no unit text.

{"substance": "KRRLIARILRLAARALVKKR-NH2 [SP13-D]", "MIC (µg/mL)": 40}
{"substance": "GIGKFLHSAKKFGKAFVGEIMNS [Magainin II, reference compound]", "MIC (µg/mL)": 32}
{"substance": "LLIKFLKRFIKH-NH2 [SP7-D]", "MIC (µg/mL)": 5}

Query LRALAKALKHKL-NH2 [SP11] yields MIC of 10

// field: MIC; key: RKRAARLLKRLV-NH2 [SP2] ; value = 5

The value of MIC measured for the substance KRRLAAFRAFRGALKSVLKK-NH2 [SP16] turned out to be 2.5

The recorded MIC for entry RKKRLKLLKR LV-NH2 [SP1-D] equals 20

###

system: Pseudomonas syringae pv. syringae; settings: LB-medium, about 10^5 CFU/ml, 27°C, 1–2d, OD590 nm; at least two independent replicates
Ends that are not written are not given here.
MIC for assorted substances
Only the number, expressed in µg/mL, is required.

Would you please look over these solved cases?
{"substance": "RKRAARLLKRLV-NH2 [SP2]", "MIC (µg/mL)": 2}
{"substance": "LKALRKALKHLA-NH2 [SP12]", "MIC (µg/mL)": 10}
{"substance": "KRRLAAFRAFRGALKSVLKK-NH2 [SP16]", "MIC (µg/mL)": 5}
{"substance": "LLKALKKLLKKLL-NH2 [SP9]", "MIC (µg/mL)": 10}

As a next step, examine the substance that follows.
Documented MIC of RKKRLKLLKR LV-NH2 [SP1-D] : 5

###

test system: Pseudomonas corrugata; conditions: Table 4, incubation period 2d; LB-medium, 27°C
Ends that are not written are not given here.
metric-name: MIC (µg/mL)
Give the value in µg/mL but do not write µg/mL after it.

Reference set, count: 5
{"substance": "KRRLIARILRLAIRALVKKR-NH2 [SP13-1]", "MIC / µg/mL": 2.5}
{"substance": "KRRILIRILKLIIKLILKKR-NH2 [SP13-5]", "MIC / µg/mL": 10}
{"substance": "LRFLKKILKKLF-NH2 [SP10-1]", "MIC / µg/mL": 2.5}
{"substance": "RKKRKKLLKRLI-NH2 [SP1-20]", "MIC / µg/mL": 0.5}
{"substance": "KRRKLAFRAFRFALKAVLKK-NH2 [SP13-13]", "MIC / µg/mL": 0.25}

Lookup result for KRRKAIKILKLIAKAIRKKR-NH2 [SP13-9] ; measured MIC: 0.25

# substance LRFLRRILRRLL-NH2 [SP10-8] ; its MIC = 0.5

###

Overview of reported MIC across a group of substances:
system: Xanthomonas vesicatoria; details: LB-medium, about 10^5 CFU/ml, 27°C, 1–2d, OD590 nm; at least two independent replicates
Ends that are not written are not given here.
Number only, in µg/mL; omit the unit.

These recorded examples may help you get a feel for the data.
{"substance": "RKRAARLLKRLV-NH2 [SP2]", "result-value": 2}
{"substance": "LLKALKKLLKKLL-NH2 [SP9]", "result-value": 5}
{"substance": "LRFLKKILKHLF-NH2 [SP10-D]", "result-value": 2}
{"substance": "LLIKFLKRFIKH-NH2 [SP7-D]", "result-value": 10}
{"substance": "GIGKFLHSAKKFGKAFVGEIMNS [Magainin II, reference compound]", "result-value": 8}
{"substance": "LKALRKALKHLA-NH2 [SP12]", "result-value": 20}
{"substance": "KRRLIARILRLAARALVKKR-NH2 [SP13-D]", "result-value": 2}
{"substance": "RKKRLKLLKR LV-NH2 [SP1-D]", "result-value": 40}

Readout MIC for KRRLAAFRAFRGALKSVLKK-NH2 [SP16] , test system Xanthomonas vesicatoria, was 5

Tested on Xanthomonas vesicatoria: KRKLIFLAAFLAALALFKKR-NH2 [SP15] . Observed MIC: 20
